- Test system: hiPSC-derived neurons co-cultured with human primary astrocytes in 3D
- method: Ca2+ transient oscillation assay (FDSS), 3D spheroids
- Format: cell-based
- test.context: 0.11 µM; 60 min
# Peak-to-peak interval - 3D Mean >= 10 % change from baseline gives 1, anything below gives 0

Is the recorded value of Peak-to-peak interval - 3D Mean equal to or greater than 10 % change from baseline for this compound? CC1(C)S[C@@H]2[C@H](NC(=O)[C@H](N)c3ccc(O)cc3)C(=O)N2[C@H]1C(=O)O [Amoxicillin]
1

Please answer likewise for C[C@]12N[C@H](Cc3ccccc31)c1ccccc12 [MK-801, Dizocilpine]
1

Please answer likewise for CN1CCN(C2=Nc3cc(Cl)ccc3Nc3ccccc32)CC1 [Clozapine]
1

Please answer likewise for Clc1ccc2c(c1)C(N1CCNCC1)=Nc1ccccc1O2 [Amoxapine]
1

Please answer likewise for NCCCC(=O)O [GABA, gamma-aminobutyric acid]
0

###

Kindly state activation at 100 µM for each of the entries shown.
- System: hiPSC-derived neurons co-cultured with human primary astrocytes in 2D
- method: Ca2+ transient oscillation assay (FDSS), 2D co-culture
- Format: cell-based
- test.context: Homo sapiens, 1 h; 100 µM; 60 min; read-out: Peak width - 2D Mean
State just the number; it will be interpreted in %.

Report activation at 100 µM for NC(=O)N1c2ccccc2C=Cc2ccccc21 [Carbamazepine] please.
-100

Please answer likewise for NCCc1c[nH]c2ccc(O)cc12
11.4

Please answer likewise for NS(=O)(=O)c1cc2c(cc1Cl)NC(C1CC3C=CC1C3)NS2(=O)=O (stereo not shown) [Cyclothiazide]
-17.3

Please answer likewise for O=C1NC(=O)C(c2ccccc2)(c2ccccc2)N1
34.7

Please answer likewise for Cn1c(=O)c2[nH]cnc2n(C)c1=O
24.3

Please answer likewise for CC(=O)Oc1ccccc1C(=O)O
32.1

Please answer likewise for CC(=O)OCC[N+](C)(C)C
-3.8

###

- Test system: hiPSC-derived neurons co-cultured with human primary astrocytes in 3D
- method: Ca2+ transient oscillation assay (FDSS), 3D spheroids
- Format: cell-based
- test.context: 33.33 µM; 60 min
Marks after values point to notes of the source that are not given here.
Kindly state Peak Number—3D Mean for each of the entries shown.

Report Peak Number—3D Mean for CC(=O)OCC[N+](C)(C)C please.
−51.6 * % change from baseline

Please answer likewise for NS(=O)(=O)c1cc2c(cc1Cl)NC(C1CC3C=CC1C3)NS2(=O)=O (stereo not shown) [Cyclothiazide]
63.6 * % change from baseline

Please answer likewise for Cn1c(=O)c2[nH]cnc2n(C)c1=O
53.5 * % change from baseline

Please answer likewise for NCCc1c[nH]c2ccc(O)cc12
−82.1 ** % change from baseline

###

Kindly state activation at 1.11 µM for each of the entries shown.
- Tested on: hiPSC-derived neurons co-cultured with human primary astrocytes in 2D
- method: Ca2+ transient oscillation assay (FDSS), 2D co-culture
- Assay type: cell-based
- test.context: Homo sapiens, 1 h; 1.11 µM; 60 min; read-out: Peak-to-peak interval - 2D Mean
- Description: In this study, we used cryopreserved excitatory neurons that were differentiated from human induced pluripotent stem cells (hiPSCs; Cat #: EX-SeV-CW50065) (Elixirgen Scientific, Inc., Baltimore, MD, USA). […] Prior to the fluorescence measurements, all wells to be measured were treated with 0.04% dimethyl sulfoxide (DMSO) to stabilize the oscillation signal. […] The effects of the test compound were recorded again starting 60 min after the administration of compounds, for 20 min. […]
State just the number; it will be interpreted in %.

Report activation at 1.11 µM for CC(=O)Nc1ccc(O)cc1 please.
34

Please answer likewise for CCN(CC)CCCC(C)Nc1c2ccc(Cl)cc2nc2ccc(OC)cc12 (stereo not drawn)
-4

Please answer likewise for CC(NC(C)(C)C)C(=O)c1cccc(Cl)c1 (stereo not drawn)
3.4

###

Kindly state activation at 3.33 µM for each of the entries shown.
- System: hiPSC-derived neurons co-cultured with human primary astrocytes in 2D
- method: Ca2+ transient oscillation assay (FDSS), 2D co-culture
- Type: cell-based
- test.context: Homo sapiens, 1 h; 3.33 µM; 60 min; read-out: Peak-to-peak interval - 2D Mean
State just the number; it will be interpreted in %.

Report activation at 3.33 µM for Cc1ccc(Nc2nccc(N(C)c3ccc4c(C)n(C)nc4c3)n2)cc1S(N)(=O)=O please.
0.5

Please answer likewise for Nc1ccncc1
-42.4

Please answer likewise for CNCCCC12CCC(c3ccccc31)c1ccccc12
-100

Please answer likewise for OC(c1cc(C(F)(F)F)nc2c(C(F)(F)F)cccc12)C1CCCCN1 (stereo not drawn)
48.2

Please answer likewise for CC[C@@H]1C(=O)OC[C@@H]1Cc1cncn1C
-9.2

Please answer likewise for CCn1cc(C(=O)O)c(=O)c2cc(F)c(N3CCNCC3)nc21
12.7

###

Kindly state Peak amplitude - 3D Mean for each of the entries shown.
- Tested on: hiPSC-derived neurons co-cultured with human primary astrocytes in 3D
- method: Ca2+ transient oscillation assay (FDSS), 3D spheroids
- Assay type: cell-based
- test.context: 0.11 µM; 60 min
State just the number; it will be interpreted in % change from baseline.

Report Peak amplitude - 3D Mean for CN(C)CCCN1c2ccccc2Sc2ccc(Cl)cc21 please.
96.7

Please answer likewise for CN1CCN(C2=Nc3cc(Cl)ccc3Nc3ccccc32)CC1
130.9

Please answer likewise for C[C@]12N[C@H](Cc3ccccc31)c1ccccc12
104.7

Please answer likewise for Clc1ccc2c(c1)C(N1CCNCC1)=Nc1ccccc1O2
92.4

###

- System: hiPSC-derived neurons co-cultured with human primary astrocytes in 3D
- method: Ca2+ transient oscillation assay (FDSS), 3D spheroids
- Type: cell-based
- test.context: 100 µM; 60 min
Marks after values point to notes of the source that are not given here.
readout.name: Peak Number—3D Mean

Report Peak Number—3D Mean for NS(=O)(=O)c1cc2c(cc1Cl)NC(C1CC3C=CC1C3)NS2(=O)=O (stereo not drawn) [Cyclothiazide] please.
102.9 ** % change from baseline

Please answer likewise for Cn1c(=O)c2[nH]cnc2n(C)c1=O [Theophylline]
78.1 * % change from baseline

Please answer likewise for NCCc1c[nH]c2ccc(O)cc12 [Serotonin]
−80.3 ** % change from baseline

###

- Tested on: hiPSC-derived neurons co-cultured with human primary astrocytes in 2D
- method: Ca2+ transient oscillation assay (FDSS), 2D co-culture
- Format: cell-based
- test.context: Homo sapiens, 1 h; 0.11 µM; 60 min; read-out: Peak width - 2D Mean
readout.name: activation at 0.11 µM (%)
State just the number; it will be interpreted in %.

Report activation at 0.11 µM for CN1CCN(C2=Nc3cc(Cl)ccc3Nc3ccccc32)CC1 [Clozapine] please.
35.5

Please answer likewise for Clc1ccc2c(c1)C(N1CCNCC1)=Nc1ccccc1O2 [Amoxapine]
22

Please answer likewise for CN(C)CCCN1c2ccccc2Sc2ccc(Cl)cc21 [Chlorpromazine]
18

###

- System: hiPSC-derived neurons co-cultured with human primary astrocytes in 3D
- method: Ca2+ transient oscillation assay (FDSS), 3D spheroids
- Format: cell-based
- test.context: 1 µM; 60 min
- Method: In this study, we used cryopreserved excitatory neurons that were differentiated from human induced pluripotent stem cells (hiPSCs; Cat #: EX-SeV-CW50065) (Elixirgen Scientific, Inc., Baltimore, MD, USA). […] Prior to the fluorescence measurements, all wells to be measured were treated with 0.04% dimethyl sulfoxide (DMSO) to stabilize the oscillation signal. […] The effects of the test compound were recorded again starting 60 min after the administration of compounds, for 20 min. […]
Kindly state Peak amplitude - 3D Mean for each of the entries shown.
State just the number; it will be interpreted in % change from baseline.

Query Peak amplitude - 3D Mean on hiPSC-derived neurons co-cultured with human primary astrocytes in 3D for C[C@]12N[C@H](Cc3ccccc31)c1ccccc12 [MK-801, Dizocilpine]
−64.1

Please answer likewise for CC1(C)S[C@@H]2[C@H](NC(=O)[C@H](N)c3ccc(O)cc3)C(=O)N2[C@H]1C(=O)O [Amoxicillin]
130.1

Please answer likewise for NCCCC(=O)O [GABA, gamma-aminobutyric acid]
90.5

###

- Tested on: hiPSC-derived neurons co-cultured with human primary astrocytes in 2D
- method: Ca2+ transient oscillation assay (FDSS), 2D co-culture
- Format: cell-based
- test.context: Homo sapiens, 1 h; 100 µM; 60 min; read-out: Peak amplitude - 2D Mean
readout.name: activation at 100 µM
# output: number + unit

Report activation at 100 µM for NS(=O)(=O)c1cc2c(cc1Cl)NC(C1CC3C=CC1C3)NS2(=O)=O (centres unmarked) [Cyclothiazide] please.
-72.8%

Please answer likewise for Cn1c(=O)c2[nH]cnc2n(C)c1=O
10%

Please answer likewise for NCCc1c[nH]c2ccc(O)cc12
-16.6%

Please answer likewise for CC(=O)Oc1ccccc1C(=O)O
3.9%

Please answer likewise for NC(=O)N1c2ccccc2C=Cc2ccccc21 [Carbamazepine]
-100%
